Biological target: Serine/threonine-protein kinase Nek9 (Homo sapiens);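 also: reported value is the mean percent inhibition of NEK9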
Conditions: at 0.1 µM
inhibition overview

Enquiry: Complete the entry with inhibition for O=C1NC(=O)C(c2ccccc2Cl)=C1Nc1cccc(O)c1
Return: 2.76%

Enquiry: Fill in reported inhibition for this entry: O=C1Nc2ccc(C(=O)c3ccco3)cc2C1=Cc1cc(Cl)c(O)c(Cl)c1
Return: 6.51%

Enquiry: Name the recorded inhibition of the item COc1ccc2cc(-c3c(-c4ccncc4)nc(-c4ccc([S+](C)[O-])cc4)n3C)ccc2c1 (stereo not given) in your answer.
Return: 7.56%

Enquiry: Give recorded inhibition. N#Cc1c(NC(=O)c2cccc3ccccc23)sc2c1CCCC2
Return: 5.96%

Enquiry: Supply inhibition value. Item: COc1ccc(COc2ccc(Cc3cnc(N)nc3N)cc2OC)cc1
Return: 0.22%
